- System: BDF1 mice, Adenocarcinoma 755 s.c., tumor weight T/C
- Assay comment: NCI In Vivo Anticancer Drug Screen. Data for tumor model Adenocarcinoma 755 (subcutaneous) in B6D2F1 (BDF1) mice
- Test settings: endpoint: mean tumor weight; dose: 50.0 mg/kg/injection; schedule: Q01DX011 (ip); vehicle: carboxymethylcellulose (CMC); higher = larger tumour
Property measured: T/C

# T/C measured on BDF1 mice, Adenocarcinoma 755 s.c., tumor weight T/C for item Nc1nc2ncc(CNc3ccc(C(=O)NC(CCC(=O)O)C(=O)O)cc3)nc2c(=O)[nH]1 (stereo unspecified) = 50 % of control

# T/C measured on BDF1 mice, Adenocarcinoma 755 s.c., tumor weight T/C for item `CCOC(=O)n1cnc2ncnc(SC)c21` = 7 % of control

# T/C measured on BDF1 mice, Adenocarcinoma 755 s.c., tumor weight T/C for item `CC(=O)Nc1c(Cl)cc2c(c1Cl)Cc1cc([N+](=O)[O-])ccc1-2` = 9 % of control

# T/C measured on BDF1 mice, Adenocarcinoma 755 s.c., tumor weight T/C for item `CCCCNc1nc(N)nc(Nc2ccc(Br)cc2)c1N=O` = 18 % of control

# T/C measured on BDF1 mice, Adenocarcinoma 755 s.c., tumor weight T/C for item CC1CN1P(=S)(N1CCCCC1)N1CC1C (stereo unspecified) = 150 % of control

# T/C measured on BDF1 mice, Adenocarcinoma 755 s.c., tumor weight T/C for item OC1CC([CH2][Hg][I])OC([CH2][Hg][I])C1 (stereo unspecified) = 30 % of control

###

- Tested on: BDF1 mice, Adenocarcinoma 755 s.c., tumor weight T/C
- Assay comment: NCI In Vivo Anticancer Drug Screen. Data for tumor model Adenocarcinoma 755 (subcutaneous) in B6D2F1 (BDF1) mice
- Test settings: endpoint: mean tumor weight; dose: 50.0 mg/kg/injection; schedule: Q01DX011 (ip); vehicle: carboxymethylcellulose (CMC); higher = larger tumour
Measured T/C of individual entries

Reference set, count: 4
CCN(CC)CCCC(C)Nc1c2ccc(Cl)cc2nc2ccc(OC)cc12 (stereo unspecified); 62 % of control
Oc1ccc2ccccc2c1N=Nc1ccc(Cl)cc1; 50 % of control
Oc1ccc2ccccc2c1N=Nc1ccc(F)cc1; 30 % of control
CCCCCCCCOc1nc(N)nc2n[nH]nc12; 112 % of control

Record summary for `CCCc1c(Cl)nc(Cl)nc1Cl` : reported T/C = 43 % of control

Record summary for CC1(O)CC([CH2][Hg][I])OC([CH2][Hg][I])C1 (stereo unspecified) : reported T/C = 67 % of control

###

- System: BDF1 mice, Adenocarcinoma 755 s.c., tumor weight T/C
- Assay comment: NCI In Vivo Anticancer Drug Screen. Data for tumor model Adenocarcinoma 755 (subcutaneous) in B6D2F1 (BDF1) mice
- Test settings: endpoint: mean tumor weight; dose: 125.0 mg/kg/injection; schedule: Q01DX011 (ip); vehicle: saline; higher = larger tumour
Property measured: T/C

C=CCc1c[nH]c(=O)[nH]c1=O; 78 % of control

Record summary for `CN(C)[C@@H]1C(=O)C(C(=O)NCNC2(C(=O)O)CCCC2)=C(O)[C@@]2(O)C(=O)C3=C(O)c4c(O)cccc4[C@@](C)(O)[C@H]3C[C@@H]12` : reported T/C = 41 % of control

Record summary for `Nc1c(Br)cc2c(c1Br)Cc1cc(Br)ccc1-2` : reported T/C = 36 % of control

Record summary for `CN1CCC(N)=NC1=O` : reported T/C = 65 % of control

Record summary for `NC(CO)(CO)CO` : reported T/C = 72 % of control

Record summary for `COc1cc(C(=O)O)nc(N)n1` : reported T/C = 100 % of control

Record summary for `NC(=O)c1cc(N)nc(Cl)n1` : reported T/C = 83 % of control
